The measured values listed here are drawn from patent US6670446B1.

Tested on: Enterococcus gallinarum 245
Assay: MIC, standard broth micro-dilution assay, EG 245
Format: cell-based
Measured minimal inhibitory concentration (MIC), EG 245, listed per entry for reference.
Form: value (number only, do not type unit).

Worked cases, answers included:
CC1OC(OC2c3ccc(c(Cl)c3)Oc3cc4cc(c3OC3OC(CO)C(O)C(O)C3OC3CC(C)(NCc5ccc(-c6ccccc6)cc5)C(O)C(C)O3)Oc3ccc(cc3Cl)C(O)C(NC(=O)C(N)Cc3ccc(Cl)cc3)C(=O)NC(CC(N)=O)C(=O)NC4C(=O)NC3C(=O)NC2C(=O)NC(C(=O)O)c2cc(O)cc(O)c2-c2cc3ccc2O)CC(C)(N)C1O (stereo not drawn) [Example 33]
1
CC1OC(OC2c3ccc(c(Cl)c3)Oc3cc4cc(c3OC3OC(CO)C(O)C(O)C3OC3CC(C)(N)C(O)C(C)O3)Oc3ccc(cc3Cl)C(O)C(NC(=O)C(Cc3ccccc3)N(C)C(=O)OC(C)(C)C)C(=O)NC(CC(N)=O)C(=O)NC4C(=O)NC3C(=O)NC2C(=O)NC(C(=O)O)c2cc(O)cc(O)c2-c2cc3ccc2O)CC(C)(N)C1O (stereo not drawn)
16
CC1OC(OC2C(Oc3c4cc5cc3Oc3ccc(cc3Cl)[C@@H](O)[C@@H](NC(=O)c3ccc(-c6ccccc6)cc3)C(=O)N[C@@H](CC(N)=O)C(=O)N[C@H]5C(=O)N[C@H]3C(=O)NC(C(=O)N[C@H](C(=O)O)c5cc(O)cc(O)c5-c5cc3ccc5O)[C@H](OC3CC(C)(N)C(O)C(C)O3)c3ccc(c(Cl)c3)O4)OC(CO)C(O)C2O)CC(C)(N)C1O (stereo partly drawn) [Example 1, N^1-(p-phenylbenzoyl)desleucylA82846B]
2
CC1OC(OC2c3ccc(c(Cl)c3)Oc3cc4cc(c3OC3OC(CO)C(O)C(O)C3OC3CC(C)(NCc5ccc(-c6ccc(Cl)cc6)cc5)C(O)C(C)O3)Oc3ccc(cc3Cl)C(O)C(NC(=O)CCCCCCNC(=O)OC(C)(C)C)C(=O)NC(CC(N)=O)C(=O)NC4C(=O)NC3C(=O)NC2C(=O)NC(C(=O)O)c2cc(O)cc(O)c2-c2cc3ccc2O)CC(C)(N)C1O (stereo not drawn)
1
CC1OC(OC2c3ccc(c(Cl)c3)Oc3cc4cc(c3OC3OC(CO)C(O)C(O)C3OC3CC(C)(NCc5ccc(-c6ccccc6)cc5)C(O)C(C)O3)Oc3ccc(cc3Cl)C(O)C(NC(=O)C(Cc3c[nH]c5ccccc35)NC(=O)OC(C)(C)C)C(=O)NC(CC(N)=O)C(=O)NC4C(=O)NC3C(=O)NC2C(=O)NC(C(=O)O)c2cc(O)cc(O)c2-c2cc3ccc2O)CC(C)(N)C1O (stereo not drawn)
2

Then this molecule:
minimal inhibitory concentration (MIC), EG 245 value, target or system Enterococcus gallinarum 245, for CC1OC(OC2c3ccc(c(Cl)c3)Oc3cc4cc(c3OC3OC(CO)C(O)C(O)C3OC3CC(C)(NCc5ccc(-c6ccccc6)cc5)C(O)C(C)O3)Oc3ccc(cc3Cl)C(O)C(NC(=O)C(Cc3ccc(Cl)cc3)NC(=O)OC(C)(C)C)C(=O)NC(CC(N)=O)C(=O)NC4C(=O)NC3C(=O)NC2C(=O)NC(C(=O)O)c2cc(O)cc(O)c2-c2cc3ccc2O)CC(C)(N)C1O (stereo not drawn) [Example 21] : 1

====

Tested on: Staphylococcus aureus SA1199
Assay: MIC, standard broth micro-dilution assay, SA 1199
Type: cell-based
VALUE TYPE: minimal inhibitory concentration (MIC), SA 1199
Form: value (number only, do not type unit).

CC1OC(OC2c3ccc(c(Cl)c3)Oc3cc4cc(c3OC3OC(CO)C(O)C(O)C3OC3CC(C)(NCc5ccc(-c6ccccc6)cc5)C(O)C(C)O3)Oc3ccc(cc3Cl)C(O)C(NC(=O)C(N)CCCCN)C(=O)NC(CC(N)=O)C(=O)NC4C(=O)NC3C(=O)NC2C(=O)NC(C(=O)O)c2cc(O)cc(O)c2-c2cc3ccc2O)CC(C)(N)C1O (stereo not drawn) [Example 31]
0.5
CC1OC(OC2c3ccc(c(Cl)c3)Oc3cc4cc(c3OC3OC(CO)C(O)C(O)C3OC3CC(C)(N)C(O)C(C)O3)Oc3ccc(cc3Cl)C(O)C(NC(=O)C(Cc3ccccc3)N(C)C(=O)OC(C)(C)C)C(=O)NC(CC(N)=O)C(=O)NC4C(=O)NC3C(=O)NC2C(=O)NC(C(=O)O)c2cc(O)cc(O)c2-c2cc3ccc2O)CC(C)(N)C1O (stereo not drawn)
4

Then this compound:
For this compound ( CC1OC(OC2c3ccc(c(Cl)c3)Oc3cc4cc(c3OC3OC(CO)C(O)C(O)C3OC3CC(C)(NCc5ccc(-c6ccccc6)cc5)C(O)C(C)O3)Oc3ccc(cc3Cl)C(O)C(NC(=O)C(Cc3ccc(Cl)cc3)NC(=O)OC(C)(C)C)C(=O)NC(CC(N)=O)C(=O)NC4C(=O)NC3C(=O)NC2C(=O)NC(C(=O)O)c2cc(O)cc(O)c2-c2cc3ccc2O)CC(C)(N)C1O (stereo not drawn) [Example 21] ), measured minimal inhibitory concentration (MIC), SA 1199 is 0.5

====

System: Staphylococcus aureus 447
Experiment: MIC, standard broth micro-dilution assay, SA 447
Assay type: cell-based
VALUE TYPE: minimal inhibitory concentration (MIC), SA 447

Worked cases, answers included:
CC1OC(OC2C(Oc3c4cc5cc3Oc3ccc(cc3Cl)[C@@H](O)[C@@H](NC(=O)CCCCCCCc3ccccc3)C(=O)N[C@@H](CC(N)=O)C(=O)N[C@H]5C(=O)N[C@H]3C(=O)NC(C(=O)N[C@H](C(=O)O)c5cc(O)cc(O)c5-c5cc3ccc5O)[C@H](OC3CC(C)(N)C(O)C(C)O3)c3ccc(c(Cl)c3)O4)OC(CO)C(O)C2O)CC(C)(N)C1O (stereo partly drawn) [Example 2]
≦.06
CC1OC(OC2C(Oc3c4cc5cc3Oc3ccc(cc3Cl)[C@@H](O)[C@@H](NC(=O)[C@H]3CCCN3C(=O)OC(C)(C)C)C(=O)N[C@@H](CC(N)=O)C(=O)N[C@H]5C(=O)N[C@H]3C(=O)NC(C(=O)N[C@H](C(=O)O)c5cc(O)cc(O)c5-c5cc3ccc5O)[C@H](OC3CC(C)(N)C(O)C(C)O3)c3ccc(c(Cl)c3)O4)OC(CO)C(O)C2O)CC(C)(N)C1O (stereo partly drawn) [Example 24]
4
CC(C)CC(NCc1ccc(-c2ccccc2)cc1)C(=O)NC1C(=O)NC(CC(N)=O)C(=O)NC2C(=O)NC3C(=O)NC(C(=O)NC(C(=O)O)c4cc(O)cc(O)c4-c4cc3ccc4O)C(OC3CC(C)(N)C(O)C(C)O3)c3ccc(c(Cl)c3)Oc3cc2cc(c3OC2OC(CO)C(O)C(O)C2OC2CC(C)(NCc3ccc(-c4ccccc4)cc3)C(O)C(C)O2)Oc2ccc(cc2Cl)C1O (stereo not drawn) [Example 35]
2
CC1OC(OC2c3ccc(c(Cl)c3)Oc3cc4cc(c3OC3OC(CO)C(O)C(O)C3OC3CC(C)(NCc5ccc(-c6ccccc6)cc5)C(O)C(C)O3)Oc3ccc(cc3Cl)C(O)C(NC(=O)C(CCCCNC(=O)OC(C)(C)C)NC(=O)OC(C)(C)C)C(=O)NC(CC(N)=O)C(=O)NC4C(=O)NC3C(=O)NC2C(=O)NC(C(=O)O)c2cc(O)cc(O)c2-c2cc3ccc2O)CC(C)(N)C1O (stereo not drawn) [Example 19]
2
CC(C)CCC(=O)N[C@H]1C(=O)N[C@@H](CC(N)=O)C(=O)N[C@H]2C(=O)N[C@H]3C(=O)NC(C(=O)N[C@H](C(=O)O)c4cc(O)cc(O)c4-c4cc3ccc4O)[C@H](OC3CC(C)(N)C(O)C(C)O3)c3ccc(c(Cl)c3)Oc3cc2cc(c3OC2OC(CO)C(O)C(O)C2OC2CC(C)(N)C(O)C(C)O2)Oc2ccc(cc2Cl)[C@H]1O (stereo partly drawn) [Example 4]
1

Then this compound:
For this compound ( CC(C)CC(N)C(=O)NC1C(=O)NC(CC(N)=O)C(=O)NC2C(=O)NC3C(=O)NC(C(=O)NC(C(=O)O)c4cc(O)cc(O)c4-c4cc3ccc4O)C(OC3CC(C)(N)C(O)C(C)O3)c3ccc(c(Cl)c3)Oc3cc2cc(c3OC2OC(CO)C(O)C(O)C2O)Oc2ccc(cc2Cl)C1O (stereo not drawn) [Example 37] ), measured minimal inhibitory concentration (MIC), SA 447 is 1

====

Test system: Enterococcus gallinarum 245
Test: MIC, standard broth micro-dilution assay, EG 245
Format: cell-based
VALUE TYPE: minimal inhibitory concentration (MIC), EG 245
Form: value (number only, do not type unit).

Worked cases, answers included:
CC1OC(OC2c3ccc(c(Cl)c3)Oc3cc4cc(c3OC3OC(CO)C(O)C(O)C3OC3CC(C)(NCc5ccc(-c6ccccc6)cc5)C(O)C(C)O3)Oc3ccc(cc3Cl)C(O)C(NC(=O)C3CCCN3C(=O)OC(C)(C)C)C(=O)NC(CC(N)=O)C(=O)NC4C(=O)NC3C(=O)NC2C(=O)NC(C(=O)O)c2cc(O)cc(O)c2-c2cc3ccc2O)CC(C)(N)C1O (stereo not drawn) [Example 26]
0.5
CSCCC(NC(=O)OC(C)(C)C)C(=O)NC1C(=O)NC(CC(N)=O)C(=O)NC2C(=O)NC3C(=O)NC(C(=O)NC(C(=O)O)c4cc(O)cc(O)c4-c4cc3ccc4O)C(OC3CC(C)(N)C(O)C(C)O3)c3ccc(c(Cl)c3)Oc3cc2cc(c3OC2OC(CO)C(O)C(O)C2OC2CC(C)(NCc3ccc(-c4ccccc4)cc3)C(O)C(C)O2)Oc2ccc(cc2Cl)C1O (stereo not drawn) [Example 15]
1

Then this molecule:
For this molecule ( CCCCCCNC(CC(C)C)C(=O)NC1C(=O)NC(CC(N)=O)C(=O)NC2C(=O)NC3C(=O)NC(C(=O)NC(C(=O)O)c4cc(O)cc(O)c4-c4cc3ccc4O)C(OC3CC(C)(N)C(O)C(C)O3)c3ccc(c(Cl)c3)Oc3cc2cc(c3OC2OC(CO)C(O)C(O)C2OC2CC(C)(N)C(O)C(C)O2)Oc2ccc(cc2Cl)C1O (stereo not drawn) [Example 39] ), measured minimal inhibitory concentration (MIC), EG 245 is 0.5
